All values here come from patent US10251395B2.

# Test system: Echinochloa crus-galli
# assay.method.text: Post-emergence herbicidal effect
# Type: in vivo
# experimental.setup: 80 g/ha, assessed visually after about 3 weeks vs untreated controls
Task for the reader: assign each of the following molecules its reported post-emergence efficacy ECHCG.
Answer with a number only, understood to be in %.

// molecule Cc1cc2c(s1)C(Nc1ncc(S(C)(=O)=O)c(N)n1)CCC2 (racemic) [compound 19] , assay Echinochloa crus-galli, post-emergence efficacy ECHCG value: 100

Entry Cc1cc2c(s1)CCCC2Nc1ncc2c(n1)CCCC2=O (racemic) [compound 9] ; assay system Echinochloa crus-galli; post-emergence efficacy ECHCG recorded at 80

Simply: Cc1cc2c(s1)CCCC2Nc1ncc(S(C)(=O)=O)c(N)n1 (racemic) [compound 59] , Echinochloa crus-galli, post-emergence efficacy ECHCG = 20

Per the reported Echinochloa crus-galli data, CC(=O)c1cnc(NC2CCCc3sc(C)cc32)nc1N (stereo not drawn) [compound 283] has post-emergence efficacy ECHCG of 80

Here Cc1cc2c(s1)CCCC2Nc1ncc(C(F)(F)F)c(N)n1 (racemic) [compound 257] was tested on Echinochloa crus-galli, and its post-emergence efficacy ECHCG came to 90

// post-emergence efficacy ECHCG (Echinochloa crus-galli) for Cc1cc2c(s1)CCCC2Nc1ncc(C#N)c(N)n1 (stereo not drawn) [compound 282] = 100

Assay Echinochloa crus-galli, sample Cc1cc2c(s1)CC(C)C2Nc1ncc(S(C)(=O)=O)c(N)n1 (racemic) [compound 17] , post-emergence efficacy ECHCG read: 80

// assay Echinochloa crus-galli, entry Cc1cc2c(s1)C(Nc1ncc(C(F)(F)F)c(N)n1)CCC2 (racemic) [compound 55] , post-emergence efficacy ECHCG value = 100

Tested on Echinochloa crus-galli, the item Cc1cc2c(s1)CCCC2Nc1ncc(C(F)(F)F)c(N)n1 (racemic) [compound 11] showed post-emergence efficacy ECHCG equal to 100

Echinochloa crus-galli post-emergence efficacy ECHCG of Cc1cc2c(s1)CCC[C@H]2Nc1ncc(C(F)(F)F)c(N)n1 [compound 47] is 100

Tested on Echinochloa crus-galli: CS(=O)(=O)c1cnc(NC2CCCc3cc(Cl)sc32)nc1N (racemic) [compound 53] . Observed post-emergence efficacy ECHCG: 80

The observed post-emergence efficacy ECHCG for Cc1cc2c(s1)CCC[C@H]2Nc1ncc(I)c(N)n1 [compound 173] when tested with Echinochloa crus-galli stands at 100

Bench note, Echinochloa crus-galli: Nc1nc(NC2CCc3sc(Cl)cc32)ncc1C(F)(F)F (racemic) [compound 256] , post-emergence efficacy ECHCG reads 100

Entry Nc1nc(N[C@@H]2CCCc3sccc32)ncc1C(F)(F)F [compound 46] : post-emergence efficacy ECHCG on Echinochloa crus-galli = 100

Item Cc1cc2c(s1)CCCC2Nc1ncc(C(F)(F)F)c(N)n1 (racemic) [compound 61] ; assay system Echinochloa crus-galli; post-emergence efficacy ECHCG reported as 100
